Reference source: BindingDB's records for PubMed 21964340

TARGET UNDER TEST: Sodium-dependent noradrenaline transporter (Homo sapiens) (UniProt P23975)
Sequence (P23975 whole entry, looked up): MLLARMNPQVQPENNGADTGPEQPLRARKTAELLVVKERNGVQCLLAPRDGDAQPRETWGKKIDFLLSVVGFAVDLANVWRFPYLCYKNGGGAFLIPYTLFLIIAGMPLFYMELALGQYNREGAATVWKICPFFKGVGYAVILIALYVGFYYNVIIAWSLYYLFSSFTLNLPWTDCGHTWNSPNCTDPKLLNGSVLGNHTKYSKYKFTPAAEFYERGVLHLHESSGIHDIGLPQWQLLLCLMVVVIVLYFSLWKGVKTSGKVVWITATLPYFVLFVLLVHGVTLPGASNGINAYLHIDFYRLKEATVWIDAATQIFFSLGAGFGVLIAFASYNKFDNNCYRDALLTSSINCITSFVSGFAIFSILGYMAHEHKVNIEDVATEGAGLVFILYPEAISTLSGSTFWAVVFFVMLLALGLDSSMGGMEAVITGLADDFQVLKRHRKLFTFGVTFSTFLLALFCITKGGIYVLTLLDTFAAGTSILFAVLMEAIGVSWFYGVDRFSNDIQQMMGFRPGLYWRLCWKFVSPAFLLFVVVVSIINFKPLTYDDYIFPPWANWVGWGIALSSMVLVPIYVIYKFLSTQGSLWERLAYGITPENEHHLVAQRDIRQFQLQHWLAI
pIC50: −log10 of the molar value.

# SMILES STR, pIC50
data = [
    ("CCNC(=O)C[C@@H]1N=C(c2ccc(Cl)cc2)c2cc(OC)ccc2-n2c(C)nnc21", "< 4.00"),
]

====

TEST: Binding affinity against ELL (unknown origin) assessed as apparent dissociation constant incubated for 1 hr by colloidal coomassie staining based LC-MS/MS analysis

# SMILES STR, Kd [nM]
data = [
    ("CCNC(=O)C[C@@H]1N=C(c2ccc(Cl)cc2)c2cc(OC)ccc2-n2c(C)nnc21", 66),
]

====

TEST: Inhibition of PRDX6 (unknown origin) incubated for 1 hr by colloidal coomassie staining based LC-MS/MS analysis
RESULT TYPE: IC50

# SMILES STR, MEASURED RESULT
measured = [
    ("CCNC(=O)C[C@@H]1N=C(c2ccc(Cl)cc2)c2cc(OC)ccc2-n2c(C)nnc21", "> 10 µM"),
]

====

TEST: Inhibition of SFRS10 (unknown origin) incubated for 1 hr by colloidal coomassie staining based LC-MS/MS analysis
pIC50: −log10 of the molar value.

# SMILES STR, pIC50
measured = [
    ("CCNC(=O)C[C@@H]1N=C(c2ccc(Cl)cc2)c2cc(OC)ccc2-n2c(C)nnc21", 6.64),
]

====

TEST: Inhibition of WDR33 (unknown origin) incubated for 1 hr by colloidal coomassie staining based LC-MS/MS analysis
pIC50: −log10 of the molar value.

# SMILES STR, pIC50
measured = [
    ("CCNC(=O)C[C@@H]1N=C(c2ccc(Cl)cc2)c2cc(OC)ccc2-n2c(C)nnc21", 5.96),
]

====

TEST: Inhibition of SF3B14 (unknown origin) incubated for 1 hr by colloidal coomassie staining based LC-MS/MS analysis
pIC50: −log10 of the molar value.
RESULT TYPE: pIC50

# SMILES STR, MEASURED RESULT
data = [
    ("CCNC(=O)C[C@@H]1N=C(c2ccc(Cl)cc2)c2cc(OC)ccc2-n2c(C)nnc21", "< 5.00"),
]
